tested on: Staphylococcus epidermidis; test: Antimicrobial activity against Staphylococcus epidermidis; assay type: functional
property_name: MIC

Prompt: What MIC value was documented for this molecule, CCCNC(=O)C[C@@H]1NC(=O)[C@@H](CCCNC(=N)N)NC(=O)[C@H](Cc2ccccc2)NC(=O)[C@@H]2CCCN2C(=O)[C@@H](Cc2ccccc2)NC(=O)[C@@H](CC(C)C)NC(=O)[C@H](CCCN)NC(=O)[C@H](C(C)C)NC(=O)[C@H](Cc2ccc(O)cc2)NC(=O)[C@H](CCCCN)NC1=O ?
Response: 8 µg/mL
